Listed below: Potency values for each entry.
Experimental Target: Glucocorticoid receptor (Homo sapiens)
Procedure Text: GR-EFC Redistribution (AID 451); note: potency is the fitted concentration of half-maximal effect
Measurement Parameters: CHO-K1 GR-EFC translocation, beta-gal luminescence, 2 h
Active and inactive are the calls of the source. Calls come from the whole dose curve.

Examples with answers:
Smiles Record: NC[C@@H]1O[C@H](C23CC4CC(CC(C4)C2)C3)Cc2c1ccc(O)c2O
Potency: > 46 µM (inactive)

Smiles Record: CN=c1nc(-c2ccccc2)n(-c2ccccc2)s1
Potency: > 46 µM (inactive)

Smiles Record: Cc1c(N)c(=O)n(-c2ccccc2)n1C
Potency: > 20.6 µM (inactive)

Smiles Record: NC(N)=NC(=O)c1nc(Cl)c(N2CCCCCC2)nc1N
Potency: > 46 µM (inactive)

Smiles Record: CC(C)NC[C@H](O)COc1cccc2[nH]ccc12
Potency: > 46 µM (inactive)

Ask: Recall the recorded Potency for O=c1[nH]c2cc([N+](=O)[O-])c([N+](=O)[O-])cc2[nH]c1=O with Glucocorticoid receptor (Homo sapiens) and state it.
Reply: > 46 µM (inactive)

Ask: Now consider Oc1ccccc1O and answer again.
Reply: > 46 µM (inactive)

Ask: What do you have for CCCn1c(=O)c2[nH]c(-c3ccc(OCC(=O)NCCN)cc3)nc2n(CCC)c1=O ?
Reply: > 46 µM (inactive)

Ask: Now consider COC1=C(OC)C(=O)c2ccccc2C1=O .
Reply: > 46 µM (inactive)

Ask: Lookup N[C@@H](CC(=O)O)C(=O)O
Reply: > 46 µM (inactive)

Ask: Record: O=Nc1ccc2oc(=O)ccc2c1
Reply: > 46 µM (inactive)

Ask: Then this compound: CN(C)c1ccc(C(=C2C=CC(=[N+](C)C)C=C2)c2ccccc2)cc1
Reply: > 9.22 µM (inactive)

Source listed as PubChem BioAssay (NCATS).
